assay comment: Absorption parameters over three species
Format: in vivo, mice, rats, or dogs
setup conditions: mouse, rat, dog, in vivo; range of the three species
readout kind: Tmax

Would you kindly share the measured Tmax for Nc1ncn(C2CC(O)C(CO)S2)c(=O)n1 (stereo not shown) ?
0.25 to 2 h

###

assay comment: Animal PK, NCA parameters, mouse
setup conditions: in vivo, iv, 1 mg/kg
readout kind: half-life (min)
One number for each entry, in min.

Would you kindly share the measured half-life for Nc1ncn(C2CC(O)C(CO)S2)c(=O)n1 (stereo not shown) [Aza-T-dCyd, 4′-Thio-5-aza-2′-deoxycytidine] ?
36

###

assay comment: Animal PK, NCA parameters, mouse
setup conditions: in vivo, iv, 1 mg/kg
readout kind: AUC(0-inf) (ng·h/mL)
Numbers only, in ng·h/mL.

{"molecule": "Nc1ncn([C@H]2C[C@H](O)[C@@H](CO)O2)c(=O)n1 [decitabine, reference compound]", "measure unit": "ng·h/mL", "AUC(0-inf)": 268}

Would you kindly share the measured AUC(0-inf) for Nc1ncn(C2CC(O)C(CO)S2)c(=O)n1 (centres unmarked) ?
406

// provenance: patent US12208112B2
